Documented Binding affinity across a set of substances
# testedSystem: acetylcholine receptor (Homo sapiens, UniProt P02708)
# Sequence (P02708 21-457): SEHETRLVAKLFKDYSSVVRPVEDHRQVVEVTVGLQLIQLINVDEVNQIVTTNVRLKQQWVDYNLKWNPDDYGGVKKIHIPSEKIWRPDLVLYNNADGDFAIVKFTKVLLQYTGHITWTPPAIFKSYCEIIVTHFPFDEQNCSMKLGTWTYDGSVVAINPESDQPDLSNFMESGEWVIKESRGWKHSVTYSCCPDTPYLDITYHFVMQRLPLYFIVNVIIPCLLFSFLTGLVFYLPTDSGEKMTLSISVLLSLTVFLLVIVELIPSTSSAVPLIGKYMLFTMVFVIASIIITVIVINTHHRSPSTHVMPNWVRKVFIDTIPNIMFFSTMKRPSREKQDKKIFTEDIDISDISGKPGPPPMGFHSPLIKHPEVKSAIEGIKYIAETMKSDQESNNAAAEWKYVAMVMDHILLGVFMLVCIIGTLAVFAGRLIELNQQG
# assayMethodText: SPR binding affinity (RU) of optimized 5mer/6mer/7mer peptides, Examples 6-7
# assayContext: SPR, peptides tested at 10 μM; 6mer-1 Top sequence
valueKind: Binding affinity (Ru)

- 6mer-1-507 (RRSQSK): 139
- 6mer-1-572 (KRVLLK): 126
- 6mer-1-475 (RKLQTK): 148
- 6mer-1-571 (RKLLCK): 154
- 6mer-1-437 (RKWFLK): 131
- 6mer-1-410 (KRVLRK): 148
- 6mer-1-470 (KKWVYR): 148
- 6mer-1-540 (KRVQTR): 128
- 6mer-1-497 (KRRQLR): 133
- 6mer-1-514 (KKGRSK): 128
- 6mer-1-593 (RKVYRK): 148
- 6mer-1-479 (RRSLTR): 135
- 6mer-1-581 (KRGLYK): 139
- 6mer-1-591 (KKRLYR): 147
- 6mer-1-546 (RKLVQR): 123
- 6mer-1-480 (KKQFYK): 121
- 6mer-1-499 (RKLFYR): 149
- 6mer-1-569 (RRVITK): 148
- 6mer-1-446 (RRVIRR): 124
- 6mer-1-492 (RRWRQK): 139
- 6mer-1-544 (KRVICR): 149
- 6mer-1-565 (KRSIRR): 151
- 6mer-1-486 (KRQVRK): 151
- 6mer-1-534 (KKRLCR): 126
- 6mer-1-524 (KKGRQK): 148
- 6mer-1-441 (RRVYYR): 146
- 6mer-1-407 (KRLRTR): 153
- 6mer-1-467 (KRGYQK): 121
- 6mer-1-533 (RKWFSR): 145
- 6mer-1-472 (KRQRCK): 142
- 6mer-1-506 (RRRLSK): 151
- 6mer-1-537 (RRGLCK): 154
